- Tested on: U2OS
- procedure-text: Incucyte cell viability with U2OS; further: unitless GR value; below 1 slowed growth and below 0 cell loss
- Format: toxicity, cell-based
- measurement-conditions: human, 18 h, 10 µM, compound concentration 10 uM, replicate number 2

| molecule | system-name | Growth Rate |
| --- | --- | --- |
| O=C(Nc1cccc(C(F)(F)F)c1)c1cccc(-n2cc(-c3ccco3)nn2)c1 | U2OS | 0.95 |
| O=C1NCc2ccc3c(-c4cccc(Cl)c4)c[nH]c3c21 | U2OS | -0.11 |
| CCN1C(=O)N(c2c(F)c(OC)cc(OC)c2F)Cc2cnc3[nH]c(CN4CCOCC4)cc3c21 [PEMIGATINIB] | U2OS | 0.2 |
| O=C(NC[C@@H]1[C@H]2CN(C(=O)OCc3cc(C(F)(F)F)cc(C(F)(F)F)c3)C[C@@H]12)c1ccc2[nH]nnc2c1 [BI 2545] | U2OS | 0.23 |
